- Assay target: Factor X (FX), P00742
- Sequence (P00742 whole entry, looked up): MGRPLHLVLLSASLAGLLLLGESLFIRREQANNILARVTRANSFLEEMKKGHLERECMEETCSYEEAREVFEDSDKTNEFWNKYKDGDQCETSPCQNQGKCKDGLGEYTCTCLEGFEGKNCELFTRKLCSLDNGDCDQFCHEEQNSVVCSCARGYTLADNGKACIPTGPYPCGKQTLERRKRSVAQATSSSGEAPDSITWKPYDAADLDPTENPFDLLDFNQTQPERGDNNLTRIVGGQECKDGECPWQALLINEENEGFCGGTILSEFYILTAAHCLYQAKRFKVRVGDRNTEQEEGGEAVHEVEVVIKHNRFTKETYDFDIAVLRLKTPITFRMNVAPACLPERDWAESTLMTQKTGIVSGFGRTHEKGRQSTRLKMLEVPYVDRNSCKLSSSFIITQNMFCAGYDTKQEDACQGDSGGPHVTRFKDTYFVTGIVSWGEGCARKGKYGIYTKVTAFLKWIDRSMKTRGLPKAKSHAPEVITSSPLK
We label by threshold. Values of % of WT kcat/KM strictly beneath 600% are 1. Values of 600% and up are 0.

[[record]]
protein = "FIXa-Y155F/K247N/N249S/T343R/R403E/E410N (protein) chain 1: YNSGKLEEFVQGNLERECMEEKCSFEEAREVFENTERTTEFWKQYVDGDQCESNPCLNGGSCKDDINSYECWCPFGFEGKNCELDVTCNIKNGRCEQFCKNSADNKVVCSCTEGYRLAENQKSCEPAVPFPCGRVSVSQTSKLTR chain 2: VVGGEDAKPGQFPWQVVLNGKVDAFCGGSIVNEKWIVTAAHCVETGVKITVVAGEHNIEETEHTEQNRSVIRIIPHHNYNAAINKYNHDIALLELDEPLVLNSYVTPICIADKEYTNIFLKFGSGYVSGWGRVFHKGRSALVLQYLRVPLVDRATCLRSTKFRIYNNMFCAGFHEGGRDSCQGDSGGPHVTEVEGTSFLTGIISWGEECAMKGKYGIYTKVSEYVNWIKNKTKLT"
group_label = 0

[[record]]
protein = "FIXa-D203N/F205T/R318Y (protein) chain 1: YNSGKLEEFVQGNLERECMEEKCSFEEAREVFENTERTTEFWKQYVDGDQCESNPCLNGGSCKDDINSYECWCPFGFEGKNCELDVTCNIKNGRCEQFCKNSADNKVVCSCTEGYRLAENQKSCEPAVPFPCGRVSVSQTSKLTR chain 2: VVGGEDAKPGQFPWQVVLNGKVNATCGGSIVNEKWIVTAAHCVETGVKITVVAGEHNIEETEHTEQKRNVIRIIPHHNYNAAINKYNHDIALLELDEPLVLNSYVTPICIADKEYTNIFLKFGSGYVSGWGRVFHKGYSALVLQYLRVPLVDRATCLRSTKFTIYNNMFCAGFHEGGRDSCQGDSGGPHVTEVEGTSFLTGIISWGEECAMKGKYGIYTKVSRYVNWIKEKTKLT"
group_label = 1

[[record]]
protein = "FIXa variant A103N/N105S/R318Y/R338E/R403E/E410N (protein) chain 1: YNSGKLEEFVQGNLERECMEEKCSFEEAREVFENTERTTEFWKQYVDGDQCESNPCLNGGSCKDDINSYECWCPFGFEGKNCELDVTCNIKNGRCEQFCKNSNDSKVVCSCTEGYRLAENQKSCEPAVPFPCGRVSVSQTSKLTR chain 2: VVGGEDAKPGQFPWQVVLNGKVDAFCGGSIVNEKWIVTAAHCVETGVKITVVAGEHNIEETEHTEQKRNVIRIIPHHNYNAAINKYNHDIALLELDEPLVLNSYVTPICIADKEYTNIFLKFGSGYVSGWGRVFHKGYSALVLQYLRVPLVDRATCLESTKFTIYNNMFCAGFHEGGRDSCQGDSGGPHVTEVEGTSFLTGIISWGEECAMKGKYGIYTKVSEYVNWIKNKTKLT"
group_label = 1

[[record]]
protein = "FIXa-Y155F/K247N/N249S/R318Y/R338E/E410N (protein) chain 1: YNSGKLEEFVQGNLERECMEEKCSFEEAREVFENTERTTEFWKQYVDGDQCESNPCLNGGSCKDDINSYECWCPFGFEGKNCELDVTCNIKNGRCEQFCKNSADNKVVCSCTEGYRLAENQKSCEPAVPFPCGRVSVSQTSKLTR chain 2: VVGGEDAKPGQFPWQVVLNGKVDAFCGGSIVNEKWIVTAAHCVETGVKITVVAGEHNIEETEHTEQNRSVIRIIPHHNYNAAINKYNHDIALLELDEPLVLNSYVTPICIADKEYTNIFLKFGSGYVSGWGRVFHKGYSALVLQYLRVPLVDRATCLESTKFTIYNNMFCAGFHEGGRDSCQGDSGGPHVTEVEGTSFLTGIISWGEECAMKGKYGIYTKVSRYVNWIKNKTKLT"
group_label = 0


Data request: Determine if FIXa variant D203N/F205T/E410N (protein) chain 1: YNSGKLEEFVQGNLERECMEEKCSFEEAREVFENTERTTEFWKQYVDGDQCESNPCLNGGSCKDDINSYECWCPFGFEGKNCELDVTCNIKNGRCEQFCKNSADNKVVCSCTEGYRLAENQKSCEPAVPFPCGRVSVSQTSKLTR chain 2: VVGGEDAKPGQFPWQVVLNGKVNATCGGSIVNEKWIVTAAHCVETGVKITVVAGEHNIEETEHTEQKRNVIRIIPHHNYNAAINKYNHDIALLELDEPLVLNSYVTPICIADKEYTNIFLKFGSGYVSGWGRVFHKGRSALVLQYLRVPLVDRATCLRSTKFTIYNNMFCAGFHEGGRDSCQGDSGGPHVTEVEGTSFLTGIISWGEECAMKGKYGIYTKVSRYVNWIKNKTKLT shows % of WT kcat/KM strictly lower than 600%.
Data returned: 1

Data request: Determine if FIXa-K293E/R338E/R403E (protein) chain 1: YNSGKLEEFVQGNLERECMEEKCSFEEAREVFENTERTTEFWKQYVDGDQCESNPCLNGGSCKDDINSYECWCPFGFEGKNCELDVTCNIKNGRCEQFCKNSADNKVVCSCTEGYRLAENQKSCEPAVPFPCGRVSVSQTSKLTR chain 2: VVGGEDAKPGQFPWQVVLNGKVDAFCGGSIVNEKWIVTAAHCVETGVKITVVAGEHNIEETEHTEQKRNVIRIIPHHNYNAAINKYNHDIALLELDEPLVLNSYVTPICIADEEYTNIFLKFGSGYVSGWGRVFHKGRSALVLQYLRVPLVDRATCLESTKFTIYNNMFCAGFHEGGRDSCQGDSGGPHVTEVEGTSFLTGIISWGEECAMKGKYGIYTKVSEYVNWIKEKTKLT shows % of WT kcat/KM strictly lower than 600%.
Data returned: 1
